Value source: PubChem BioAssay AID463102

TARGET OR SYSTEM: Glutathione S-transferase omega-1 (Homo sapiens) (UniProt P78417)
Sequence (P78417 whole entry, looked up): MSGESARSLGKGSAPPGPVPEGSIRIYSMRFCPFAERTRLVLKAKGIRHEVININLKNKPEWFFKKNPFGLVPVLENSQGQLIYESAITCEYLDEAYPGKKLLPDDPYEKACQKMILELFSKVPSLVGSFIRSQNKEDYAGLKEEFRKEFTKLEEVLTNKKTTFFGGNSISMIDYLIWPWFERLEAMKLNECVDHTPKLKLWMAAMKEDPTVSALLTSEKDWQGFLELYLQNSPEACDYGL
ASSAY OVERVIEW: selectivity of GSTO1 blockers across lysate enzymes – cell lysate, MDA-MB-435 proteome, gel ABPP, endogenous enzyme, selectivity assay for GSTO1 inhibitor project, late-stage follow-up (AID 463102)
RECORDED CONDITIONS: competitive gel ABPP, SE-Rh probe, at 0.1 µM, hits give high values
MEASURED PARAMETER: inhibition (%)

O=S(=O)(c1ccc(Cl)cc1)N1CCC2(CC1)CO2    19

A: O=c1[nH]c(CCl)nc2cc(-c3ccc(F)cc3)sc12
B: COc1ccc(N(CCCNC(=O)C(F)(F)F)C(=O)CCl)cc1
// pick larger inhibition from pair: A vs B Selection: enter the item's label.
A
